B1: TPR t1 (parent)
chain: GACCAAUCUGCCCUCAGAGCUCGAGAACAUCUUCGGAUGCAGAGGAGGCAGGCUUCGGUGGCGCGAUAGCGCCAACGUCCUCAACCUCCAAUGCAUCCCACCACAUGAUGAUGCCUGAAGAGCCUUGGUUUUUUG

Variants of: B1
assay.remarks: polymerase ribozyme fitness, log enrichment relative to wild type (log ratio); higher = more active; in vitro selection for triplet polymerase activity
Recorded polymerase ribozyme fitness (log ratio) values for a group of variants are listed next.
reported.endpoint: polymerase ribozyme fitness (log ratio)

sequence_input=GACCAAUCUGCCCUUAGAGCUCGAGAACAUCUUCGGAUGCAGUGGAGGCAGGCUUCGGUGGCGCGAUAUCGCCAACGUCCUCAACCUUCACUGCAUCCCACCACAUGAUGAUGCCUGAACAGCCUUGGUUUUUUG reported_endpoint="polymerase ribozyme fitness (log ratio)" result=0.39
sequence_input=GACCAAUCUGCCCUCAGAGCUCGAGAACUUCUUCGGAUGCAGAGGAGGCAGGCUUCGGUGGCGCGAUAUCGCCAACGUCCUCAACCUCCAAUGCAUCCCACCACAUGAUGAUGCCUGAAUAGCCUUGGUUUUUUG reported_endpoint="polymerase ribozyme fitness (log ratio)" result=-0.561
sequence_input=GACCAAUCUGCCCUCAGAGCUCGAGAACGUCUUCGGAUGCAGAGGAGGCAGGCUUCGGUGGCGCGAUAGCGCCAACGUCCUCAACCUCCAAUGCAUCCCACCACAUGAUGCUGCCUGAAGAGCCUUGGUUUUUUG reported_endpoint="polymerase ribozyme fitness (log ratio)" result=-0.114
sequence_input=GACCAAUCCGCCCUCAGAGCUCGAGAACAUCCUCGGAUGCAGAGGAGGCAGGCUUCGGGGGCGCGAUAGCGCCAACGUCCUCAACCUCCAAUGCAUCCCACCACAUGAUGAUGCCUGAAGCUCCUUGGUUUUUUG reported_endpoint="polymerase ribozyme fitness (log ratio)" result=0.733
sequence_input=GACCAAUCUGCCCUCAGAGCUCGAGAACAUCUUCGGAUGCAGAGGAGGCAGGCUUCGGUCGCGCGAUAGCGCCAACGUCCUCAACCUCCAAUGCAUGCCACCACAUGAAGAUGCCUGAAGAGCCUUGGUUUUUUG reported_endpoint="polymerase ribozyme fitness (log ratio)" result=-7.09
sequence_input=GACCAAUCUGCCCUCAGAGCUCGAGAACAUCUUCGGAUGCAGAGGAGGCAGGCUUCGGUGGCACGAUAGCGCCAACGUCCUCAACCUCCAAUGCAUCCCACCACAUGAUGAGGCCUGAAGAGCCUUGGUUUUUUG reported_endpoint="polymerase ribozyme fitness (log ratio)" result=-1.1
sequence_input=GACCAAUCUGCCCUCAGAGCUCGAGAACAUCUUCGGAUGUAGAGGAGGCAGGUUUCGGUGCCGCGAUAGCGCCAACGUCCUCAACCUCCAAUGCAUCCCACCACAUGAUGAUGCCUGAAGAGCCUUGGUUAUUUG reported_endpoint="polymerase ribozyme fitness (log ratio)" result=-0.765
sequence_input=GACCAAUCUGCCCUCAGAGCUCGAGAACAUCUUCGGAUGCAGAUAAGGCAGGCAUCGGUGGCGCGAUAGCGGCAACGUCCUCAACCUCCAAUGCAUCCCACCACAUGAUGAUGCCUGAAGAGCCUUGGUUUUUUG reported_endpoint="polymerase ribozyme fitness (log ratio)" result=-3.66
sequence_input=GACCAAUCUGCCCUCAGAGCUCGAGAACAUCUUCGGAUUCAGAGGAGGCAGGCUUCGGUGGCGCGAUAGCGCCAACGUCCUCAACCUCCGAUGCAUCCCACAACAUGAUGAUGCCUUAAGCGCCUUGGUUUUUUG reported_endpoint="polymerase ribozyme fitness (log ratio)" result=-5.4
sequence_input=GACCAAUCUGCCCUCAGAGCUCGAGAACAUCUUCGGAUGUAGAGGAGGCAGGCUUCGGUGGCGCGAUAGCGCCAACGUCCUGAACCUCCAAUGCAUCCCACCACAUGAUGAUGCCUGAAGAGCCUUGGUUUUUUG reported_endpoint="polymerase ribozyme fitness (log ratio)" result=-1.54
sequence_input=GUCCAAUCUGCCCUCAGAGCUCGAGAACAUCUUCGGAUGCAGAGGAGGCAGGCUUCGGUGGCGCGAUAGCGCCAACGUCCUCAACCUCCAAUGCAUCCCACCACAUGAUGAUGUCUGAAGAGCCUUGGUUUUUUG reported_endpoint="polymerase ribozyme fitness (log ratio)" result=-4.35
sequence_input=GACCAAUCUGGCCUCAGAGGUCGAGAACAUCUUCGGAUGCAGAGGAGGCAGGCUUCGGUGGCGCGAUAGCGCUAACGUCCUCAACCUCCAAUGCAUCCCACCACAAAAUGAUGCCUGAAGAGCCUUGGUUUUUUG reported_endpoint="polymerase ribozyme fitness (log ratio)" result=-5.37
